B1: SCNN1D (parent)
chain: FYRLYQDLETHRLPCTSRCPRPCR

variants of: B1; experiment: protein stability index of a GFP-peptide fusion (GPS, HEK-293T) (PSI 1-6); higher = more stable; conditions: c terminus: a fixed tail appended;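 further: lentivirally expressed fusions sorted by FACS into six bins by GFP to DsRed ratio, PSI derived from sequencing read proportions per bin multiplied by bin number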
Consider the following variants; for each one, report its protein stability index.
Give bare numbers.

// solved cases for protein stability index follow
# variant.annotation, protein stability index
measured = [
    ("F1G", 4.3),
    ("T16N", 2.21),
    ("R12V", 1.93),
    ("D7K", 2.08),
    ("R3F", 2.32),
]

Return reported protein stability index values for all items listed beneath this line.
1. Q6F
2. S17C
3. T16H
4. S17P
5. T16I
6. R12E
7. R3H
8. R24M

A)
1: 1.79; 2: 1.65; 3: 1.49; 4: 2.46; 5: 1.62; 6: 2.5; 7: 2.38; 8: 2.8

Return reported protein stability index values for all items listed beneath this line.
1. R3P
2. L13A

A)
1: 3.04; 2: 2.42
